Origin of the recorded values: paper PMC6928210

biological target: AtSHMT4 (Arabidopsis thaliana, UniProt O23254); construct: The open reading frames coding for AtSHMT2 41–517 fragment and full-length AtSHMT4 were amplified; His6 (N, cleaved yes); assay: Competitive binding assay vs 5-formyl-THF, quinonoid intermediate absorbance; settings: AtSHMT4, 20 mM KPi pH 7.3, 30 °C, glycine 10 mM, 5-formyl-THF varied; read-out: Ki (inhibition constant, antifolate binding to the enzyme-glycine complex)
Sequence (O23254 whole entry, the tested form may be a part): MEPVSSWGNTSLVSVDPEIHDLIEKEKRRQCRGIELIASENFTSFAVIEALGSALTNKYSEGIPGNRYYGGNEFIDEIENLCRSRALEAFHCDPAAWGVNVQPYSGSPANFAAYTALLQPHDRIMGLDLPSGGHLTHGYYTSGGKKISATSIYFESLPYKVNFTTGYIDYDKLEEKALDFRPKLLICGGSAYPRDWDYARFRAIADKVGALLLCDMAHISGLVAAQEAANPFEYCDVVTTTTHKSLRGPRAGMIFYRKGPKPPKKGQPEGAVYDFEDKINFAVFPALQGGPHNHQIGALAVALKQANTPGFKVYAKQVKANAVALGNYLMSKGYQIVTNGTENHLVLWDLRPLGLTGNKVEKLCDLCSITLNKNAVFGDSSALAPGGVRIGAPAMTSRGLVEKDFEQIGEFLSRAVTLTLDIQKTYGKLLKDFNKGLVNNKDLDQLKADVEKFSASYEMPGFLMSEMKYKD
Measure: pKi
On this scale, pKi is minus log10 of a concentration expressed in M (mol/L).

Name the recorded pKi of the molecule listed here: CN(Cc1cnc2nc(N)nc(N)c2n1)c1ccc(C(=O)N[C@@H](CCC(=O)O)C(=O)O)cc1 [MTX, methotrexate]
3.75
